# experimental-target: RAC-alpha serine/threonine-protein kinase (Homo sapiens)
pIC50: −log10 of the molar value.

- molecule: "O=C1C[C@H]2O[C@H](c3cccs3)C3=C(C(=O)c4ccccc4C3=O)[C@H]2O1"
  pIC50: 7.24
- molecule: "O=C1C[C@H]2O[C@H](c3ccsc3)C3=C(C(=O)c4ccccc4C3=O)[C@H]2O1 (stereo in doubt; (-))"
  pIC50: 7.00
- molecule: "CCC[C@H]1O[C@@H]2CC(=O)O[C@@H]2C2=C1C(=O)c1c(OC)cccc1C2=O"
  pIC50: 6.30
- molecule: "CCC[C@@H]1O[C@@H]2CC(=O)O[C@@H]2C2=C1C(=O)c1ccccc1C2=O (racemic)"
  pIC50: 6.42

----------
# experimental-target: RAC-alpha serine/threonine-protein kinase (Homo sapiens, UniProt P31749, C310A)
# Sequence (P31749 whole entry C310A): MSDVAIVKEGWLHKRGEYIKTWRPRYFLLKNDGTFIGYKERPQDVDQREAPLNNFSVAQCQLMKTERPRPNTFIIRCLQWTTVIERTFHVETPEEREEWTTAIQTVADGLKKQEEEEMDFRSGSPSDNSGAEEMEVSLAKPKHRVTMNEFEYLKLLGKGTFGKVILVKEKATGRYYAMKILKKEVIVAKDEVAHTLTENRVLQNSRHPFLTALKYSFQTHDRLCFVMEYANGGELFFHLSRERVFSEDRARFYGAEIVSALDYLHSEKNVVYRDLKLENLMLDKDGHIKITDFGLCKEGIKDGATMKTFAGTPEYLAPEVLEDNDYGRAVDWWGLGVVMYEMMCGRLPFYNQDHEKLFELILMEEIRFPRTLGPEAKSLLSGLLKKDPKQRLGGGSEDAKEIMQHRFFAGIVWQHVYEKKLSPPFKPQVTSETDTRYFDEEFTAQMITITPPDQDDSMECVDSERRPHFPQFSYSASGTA
# assay-text: Inhibition of AKT C310A mutant
pIC50: −log10 of the molar value.

- structure-string: "C[C@H]1O[C@@H]2CC(=O)O[C@@H]2C2=C1C(=O)c1c(ccc([C@H]3C[C@@H](N(C)C)[C@H](O)[C@@H](C)O3)c1O)C2=O"
  pIC50: 4.41

----------
# assay-text: Cytotoxicity against human MDA468 cells expressing AKT
# Type: functional, cell-based, MDA-MB-468
# condition-description: mda-mb-468

- compound: "O=C1C[C@H]2O[C@H](c3ccsc3)C3=C(C(=O)c4ccccc4C3=O)[C@H]2O1 (stereo in doubt; (-))"
  IC50 / nM: 410

All figures here come from ChEMBL document CHEMBL1153413.
